{"columns": ["COMPOUND", "melting point"],
 "data": [
  ["CCCCOCCOc1ccc(-c2ccc3c(c2)C=C(C(=O)Nc2ccc([C@H](O)c4cccc[n+]4[O-])cc2)CCN3CC2CC2)cc1 [Compound 84]", "85 to 88 °C"],
  ["CCCCOCCOc1ccc(-c2ccc3c(c2)C=C(C(=O)Nc2ccc(C(O)c4c(OCCC)ccc[n+]4[O-])cc2)CCN3C(=O)C(F)(F)F)cc1 (stereo not drawn) [Compound 112]", "144 to 146 °C"],
  ["CCCCOCCOc1ccc(-c2ccc3c(c2)C=C(C(=O)Nc2ccc([C@H](O)c4cccc[n+]4[O-])cc2)CCN3S(C)(=O)=O)cc1 [Compound 94]", "118 to 120 °C"],
  ["CCCCOCCOc1ccc(-c2ccc3c(c2)C=C(C(=O)Nc2ccc([S+]([O-])Cc4nncn4CC(C)C)cc2)CCN3CCC)cc1 (stereo not drawn) [Compound 33]", "186 to 190 °C (dec.)"],
  ["CCCCOCCOc1ccc(-c2ccc3c(c2)C=C(C(=O)Nc2ccc(S(=O)(=O)Cc4cncn4CC(N)=O)cc2)CCN3CC(C)C)cc1 [Compound 431]", "229 to 231 °C"],
  ["CCCCOCCOc1ccc(-c2ccc3c(c2)C=C(C(=O)Nc2ccc([S+]([O-])CCn4cnnc4)cc2)CCN3CC(C)C)cc1 (stereo not drawn) [Compound 155]", "168 to 170 °C"]
]}
